test system: HCT-116 cells; experiment: Inhibition of sphere-forming ability of cancer cells (Test Example 1); type: cell-based; conditions: Homo sapiens, 96 h; HCT-116 spheres, non-adherent, serum-free, 4 days, CellTiter-Glo; read-out: Sphere IC50 value (concentration for 50% inhibition of cell proliferation)
value.kind: pIC50
The value called pIC50 is obtained by taking minus log10 of the concentration in mol/L.

Completed entries (count: 3):
O=C(Nc1cn(Cc2cc(F)cc(F)c2)cn1)c1cnc(CO)c(C(F)F)c1 [Example 79]	7.10
O=C(Nc1cn(Cc2cccc(Cl)c2)cn1)c1cnc(CO)c(C(F)F)c1 [Example 55]	7.12
O=C(COc1ccc(CO)nc1)Nc1cn(Cc2cc(F)c(F)c(F)c2)cn1 [Example 2]	6.20

pIC50 reading for COCc1ccc(C(=O)Nc2cn(Cc3cccc(C(F)(F)F)c3)cn2)cn1 [Example 9] : 5.30

pIC50 reading for NCc1ccc(C(=O)Nc2cn(Cc3cccc(C(F)(F)F)c3)cn2)cn1 [Example 24, ditrifluoroacetate] : 7.21

pIC50 reading for CC(C)(O)c1ccc(/C=C/C(=O)Nc2cn(Cc3cccc(C(F)(F)F)c3)cn2)cn1 [Example 53] : 5.14

pIC50 reading for Cc1sc(C(=O)Nc2cn(Cc3cc(F)c(F)c(F)c3)cn2)nc1CO [Example 47] : 6.17

pIC50 reading for O=C(Nc1cn(Cc2cccc(C(F)(F)F)c2)cn1)c1cnc(CO)c(F)c1 [Example 30] : 7.16

pIC50 reading for Cc1cc(CO)ncc1C(=O)Nc1cn(Cc2cccc(C(F)(F)F)c2)cn1 [Example 35] : 5.42

pIC50 reading for O=C(Nc1cn(Cc2cccc(C(F)(F)F)c2)cn1)c1cnc(C(O)CO)c(F)c1 (centres unmarked) [Example 27] : 6.16

====

system: HCT-116 cells; assay: Inhibition of sphere-forming ability of cancer cells (Test Example 1); assay type: cell-based; settings: Homo sapiens, 96 h; HCT-116 spheres, non-adherent, serum-free, 4 days, CellTiter-Glo; read-out: Sphere IC50 value (concentration for 50% inhibition of cell proliferation)
value.kind: pIC50
The value called pIC50 is obtained by taking minus log10 of the concentration in mol/L.

Completed entries (count: 6):
Cc1nc(C(=O)Nc2cn(Cc3cc(F)c(F)c(F)c3)cn2)sc1CO [Example 48]	7.02
CC(C)(O)c1ccc(C(=O)Nc2cn(Cc3cccc(C(F)(F)F)c3)cn2)cn1 [Example 5]	5.08
O=C(Nc1cn(Cc2cc(F)c(F)c(F)c2)cn1)c1cnc(CO)c(Cl)c1 [Example 41]	7.29
O=C(Nc1cn(Cc2cccc(C(F)(F)F)c2)cn1)c1cnc(CO)cn1 [Example 20]	7.28
O=C(Nc1cn(Cc2cccc(C(F)(F)F)c2)cn1)c1csc(CO)n1 [Example 7]	7.62
O=C(Nc1cn(Cc2cc(F)c(F)c(F)c2)cn1)c1ccc(CO)nc1 [Example 10]	8.15

pIC50 reading for O=C(Nc1cn(Cc2ccc(Br)c(F)c2)cn1)c1cnc(CO)c(C(F)F)c1 [Example 67] : 7.40

pIC50 reading for O=C(Nc1cn(Cc2cccc(C(F)(F)F)c2)cn1)c1cc(CO)on1 [Example 21] : 6.19

====

system: HCT-116 cells; assay: Inhibition of sphere-forming ability of cancer cells (Test Example 1); assay type: cell-based; settings: Homo sapiens, 96 h; HCT-116 spheres, non-adherent, serum-free, 4 days, CellTiter-Glo; read-out: Sphere IC50 value (concentration for 50% inhibition of cell proliferation)
value.kind: IC50

O=C(Nc1cn(Cc2cc(F)c(F)c(F)c2)cn1)c1cnc(CO)c(C(F)F)c1	< 10 nM
COc1cc(Cn2cnc(NC(=O)c3cnc(CO)c(C(F)F)c3)c2)cc(C(F)(F)F)c1	630 nM
O=C(Nc1cn(Cc2cccc(C(F)(F)F)c2)cn1)c1ccc(CO)nc1	< 10 nM

Read the next record carefully.
IC50 reading for O=C(Nc1cn(Cc2ccc(F)c(Cl)c2)cn1)c1cnc(CO)c(C(F)F)c1 : < 10 nM
